Listed compounds paired with reported solubility kinetic
# TEST_CONTEXT: buffer; pH 7.4; 200.0 µM
Express the result in µg/mL but write the number alone.

Use these answered entries as a reference point.
[[record]]
compound = "Fc1ccccc1CN1CCCC(NC2CCC2)C1 (configuration not stated)"
val = 36.9

[[record]]
compound = "COc1ccc(COc2cccc3ccc(C)nc23)cc1F"
val = 5.2


Now for the compound whose solubility kinetic we want.
GET /values?readout=solubility kinetic&item= `O=C(NCCCNC(=O)c1ccc(Cl)cc1Cl)c1ccccn1`
51.8

* * *

Recorded solubility kinetic values for a group of compounds are listed next.
# TEST_CONTEXT: buffer; pH 7.4; 200.0 µM

[[record]]
compound = "O=C(Nc1ccc(S(=O)(=O)Nc2ccccn2)cc1)C(F)(F)F"
quantity_measured = "solubility kinetic"
val = "> 51.8 µg/mL"

[[record]]
compound = "O=c1[nH]c(CSc2ncn[nH]2)nc2ccccc12"
quantity_measured = "solubility kinetic"
val = "> 38.9 µg/mL"

[[record]]
compound = "O=C(Nc1cccnc1)c1cccc(S(=O)(=O)N2CCCC2)c1"
quantity_measured = "solubility kinetic"
val = "> 49.7 µg/mL"


Could you now consider this next compound?
May I ask what solubility kinetic has been recorded for `Cc1nc(-c2ccc(S(=O)(=O)NCc3ccccn3)s2)cs1` ?
> 52.7 µg/mL

* * *

# TEST_CONTEXT: buffer; pH 7.4; 200.0 µM
# maps each entry to its solubility kinetic

Consider the following illustrative entries.
[[record]]
compound = "CCOC(=O)c1cc(NC(=O)c2cccnc2)ccc1N1CCOCC1"
quantity_measured = "solubility kinetic"
val = "> 53.3 µg/mL"

[[record]]
compound = "CC(=O)C1=C(O)C(=O)N(CCO)C1c1ccccc1 (centres undefined)"
quantity_measured = "solubility kinetic"
val = "> 39.2 µg/mL"

[[record]]
compound = "O=C(CN1CCCCC1)Nc1scc2c1c(=O)oc1ccccc12"
quantity_measured = "solubility kinetic"
val = "< 0.4 µg/mL"


Next compound, solubility kinetic to be filled in.
Data request, read-out solubility kinetic, for `O=C(NCc1ccccc1)N1CCC(Cc2ccccc2)CC1`
< 0.3 µg/mL

* * *

Each entry below carries its reported solubility kinetic.
# TEST_CONTEXT: buffer; pH 7.4; 200.0 µM

[[record]]
smiles_repr = "Cc1c(O)c2ccccc2n(-c2ccccc2)c1=O"
quantity_measured = "solubility kinetic"
val = "> 37.7 µg/mL"


Item under review: `CCCCn1c(=O)c(C(=O)Nc2ccccc2N)c(O)c2ccccc21` . Reported solubility kinetic?
< 0.3 µg/mL

Can you check `CCOC(=O)c1c(C)nc(C(Cl)(Cl)Cl)nc1N` next?
21.7 µg/mL

* * *

Here the recorded solubility kinetic is given for each entry.
# TEST_CONTEXT: buffer; pH 7.4; 200.0 µM

Worked examples, 3 molecules total:
[[record]]
molecule = "N#Cc1cc(C#N)c(SCC(=O)NCC2CCCO2)nc1N (configuration not stated)"
val = "> 47.6 µg/mL"

[[record]]
molecule = "CC(=O)c1ccc(NC(=S)NCc2cccnc2)cc1"
val = "> 42.8 µg/mL"

[[record]]
molecule = "Cc1cc2nc(=O)c(/C=C3\\C=Nc4ccccc43)c(N)n2o1"
val = "< 0.2 µg/mL"


Sample `Cc1ccc(S(=O)(=O)/N=C(/c2ccc(F)cc2)N(C)C)cc1` — what was its solubility kinetic?
> 48.1 µg/mL

One more molecule: `CCCn1c(=O)cc(N)n(-c2ccc(OC(F)(F)F)cc2)c1=O`
> 49.4 µg/mL

What about this molecule? `O=C(/C=C/c1ccccc1Cl)NC1CCCCC1`
< 0.6 µg/mL

Try CC(C(=O)O)N1C(=O)C2C3c4ccccc4C(c4ccccc43)[C@@H]2C1=O (some centres not stated) next.
> 52.1 µg/mL

Repeat with O=C(Cc1ccc(Cl)cc1)NC1CCS(=O)(=O)C1 (configuration not stated)
> 43.2 µg/mL

Another molecule: CC(=O)N1c2ccccc2-c2nc3ccccc3n2C1C (configuration not stated)
> 41.6 µg/mL

Likewise for `O=C(Nc1ccc(Br)cc1)N1CCc2ccccc2C1` ?
1.1 µg/mL

What do you get for CCOC(=O)C1CCCN(c2c(NCCc3ccccc3)c(=O)c2=O)C1 (configuration not stated) ?
25.5 µg/mL

Next molecule up: `CCCOC(=O)Cn1cnc2scc(-c3ccc(OC)cc3)c2c1=O`
27.7 µg/mL

Can you handle `O=S(=O)(NC1=NCCC1)c1cccc(NC(=S)Nc2ccc(OC(F)F)cc2)c1` next?
> 66.1 µg/mL

Okay, and `COC(=O)c1ccc(CO/N=C/c2cccc([N+](=O)[O-])c2)cc1` ?
< 0.3 µg/mL

Follow-up entry: `Cc1ccc(C(=O)CCC(=O)NCc2ccccc2)cc1`
16.9 µg/mL

And the next one, `Cc1ccccc1C(=O)Nc1cccc(NC(=O)c2cccs2)c1` ?
17.7 µg/mL

Same again, this time with `Cn1nccc1C(=O)OCC(=O)Nc1ccc(S(N)(=O)=O)cc1`
> 50.8 µg/mL
